System: NCI-H292 lung cancer cells
Assay: FDA drug screening, complete media vs cholesterol-free media without statin (TABLE 1)
Type: cell-based, human
Details: NCI-H292 cells in cholesterol-free media without statin
Structures can show the parent of a compound that is named as a salt.
Readout Kind: Cholesterol-free

Recorded Cholesterol-free, per entry:
| Compound | Cholesterol-free |
| --- | --- |
| CCOc1ccc2ccccc2c1C(=O)N[C@@H]1C(=O)N2[C@@H]1SC(C)(C)[C@@H]2C(=O)O [Nafcillin (sodium monohydrate)] | 1.957 |
| O=S(=O)(O)c1cc(O)ccc1O [Ethamsylate] | 1.652 |
| Clc1cccc(Cl)c1N=C1NCCN1 | 1.46 |
| Nc1ccc(S(=O)(=O)c2ccc(N)cc2)cc1 | 1.475 |
| CNC(=C[N+](=O)[O-])NCCSCc1ccc(CN(C)C)o1 [Ranitidine (hydrochloride)] | 1.186 |

I have this compound here, NC(=O)c1cccc2cn(-c3ccc([C@@H]4CCCNC4)cc3)nc12 [Niraparib (hydrochloride)] , and I need its recorded Cholesterol-free. 1.435

I have this compound here, COc1cc(N)c(Cl)cc1C(=O)NC1CCN(CCCOc2ccc(F)cc2)CC1OC (stereo not shown) [Cisapride] , and I need its recorded Cholesterol-free. 1.595

I have this compound here, `NC(=O)Cc1cccc(C(=O)c2ccccc2)c1N` , and I need its recorded Cholesterol-free. 1.612

I have this compound here, `NCc1ccc(C(=O)O)cc1` , and I need its recorded Cholesterol-free. 1.961

I have this compound here, `O=C(O)CCCCCCCC(=O)O` , and I need its recorded Cholesterol-free. 1.702

I have this compound here, `CC(C)(C)CC(C)(C)c1ccc(O)c(Cc2ccc(Cl)cc2Cl)c1` , and I need its recorded Cholesterol-free. 1.815

I have this compound here, `O=C(OC[C@H]1O[C@@H](OC(=O)c2cc(O)c(O)c(OC(=O)c3cc(O)c(O)c(O)c3)c2)[C@H](OC(=O)c2cc(O)c(O)c(OC(=O)c3cc(O)c(O)c(O)c3)c2)[C@@H](OC(=O)c2cc(O)c(O)c(OC(=O)c3cc(O)c(O)c(O)c3)c2)[C@@H]1OC(=O)c1cc(O)c(O)c(OC(=O)c2cc(O)c(O)c(O)c2)c1)c1cc(O)c(O)c(OC(=O)c2cc(O)c(O)c(O)c2)c1` , and I need its recorded Cholesterol-free. 1.391

I have this compound here, CCCCN1C[C@H](O)[C@@H](O)[C@H](O)[C@H]1CO [Miglustat (hydrochloride)] , and I need its recorded Cholesterol-free. 1.836

I have this compound here, `CC(=O)c1ccc2c(c1)N(CCCN1CCC(CCO)CC1)c1ccccc1S2` , and I need its recorded Cholesterol-free. 1.769

I have this compound here, CCCCC[C@H](O)/C=C/[C@H]1[C@H](O)CC(=O)[C@@H]1C/C=C\CCCC(=O)O [Prostaglandin E2] , and I need its recorded Cholesterol-free. 1.546

I have this compound here, `Cc1ccnc(NS(=O)(=O)c2ccc(N)cc2)n1` , and I need its recorded Cholesterol-free. 1.498

I have this compound here, NC[C@H](CC(=O)O)c1ccc(Cl)cc1 [(R)-Baclofen] , and I need its recorded Cholesterol-free. 2.052

---

Test system: NCI-H292 lung cancer cells
Test: FDA drug screening, complete media vs cholesterol-free media without statin (TABLE 1)
Type: cell-based, human
Settings: NCI-H292 cells, FDA drug library screen, cholesterol-free media without statin
Peptide text beside a SMILES is read from it.
Listed here: items and their measured Cholesterol-free.
Output: the number by itself.

Recorded Cholesterol-free, per entry:
| Molecule | Tested System | Cholesterol-free |
| --- | --- | --- |
| CCN(CC)C(=O)C1(c2ccccc2)CC1CN.Cl (stereo not drawn) [Milnacipran ((1S-cis)hydrochloride)] | NCI-H292 lung cancer cells | 1.07 |
| CC(C)(CO)[C@H](O)C(=O)NCCCO | NCI-H292 lung cancer cells | 1.002 |

I have this molecule here, CCNC(=O)[C@@H]1CCCN1C(=O)[C@H](CCCNC(=N)N)NC(=O)[C@H](CC(C)C)NC(=O)CNC(=O)[C@H](Cc1ccc(O)cc1)NC(=O)[C@H](CO)NC(=O)[C@H](Cc1c[nH]c2ccccc12)NC(=O)[C@H](Cc1c[nH]cn1)NC(=O)[C@@H]1CCC(=O)N1 [Fertirelin] (HELM PEPTIDE1{[Glp].H.W.S.Y.G.L.R.P.[CCN[*:1]]}$$$$V2.0) , and I need its recorded Cholesterol-free. 0.9867

---

System: NCI-H292 lung cancer cells
Experiment: FDA drug screening, complete media vs cholesterol-free media without statin (TABLE 1)
Type: cell-based, human
Details: NCI-H292 cells, FDA drug library screen, cholesterol-free media without statin
Where a name gives a salt, the structure may show the parent alone.
Kind request: treat 1 as inclusive, so Cholesterol-free at 1 or higher is Met, anything lower is Not met.

| Compound | Group Label |
| --- | --- |
| CC(C)(Oc1ccc(C2CC2(Cl)Cl)cc1)C(=O)O (stereo not shown) [Ciprofibrate] | Met |
| CN(C)c1cc(CNCC(C)(C)C)c(O)c2c1C[C@H]1C[C@H]3[C@H](N(C)C)C(O)=C(C(N)=O)C(=O)[C@@]3(O)C(O)=C1C2=O [Omadacycline (hydrochloride)] | Met |
| NC(=O)N[C@@H](CCC(=O)O)C(=O)O [Carglumic Acid] | Met |
| CCOc1ccc(NC(C)=O)cc1 [Phenacetin] | Not met |
| CNCc1cc(-c2ccccc2F)n(S(=O)(=O)c2cccnc2)c1 [Vonoprazan] | Met |

# check: Cholesterol-free of CC(=O)Oc1cccc2c1C(=O)c1c(OC(C)=O)cc(C(=O)O)cc1C2=O [Diacerein] is greater than or equal to 1 Met

# check: Cholesterol-free of CN(C)C(=O)N[C@H]1CC[C@H](CCN2CCN(c3cccc(Cl)c3Cl)CC2)CC1 [Cariprazine (hydrochloride)] is greater than or equal to 1 Met

# check: Cholesterol-free of Cc1ncc(CO)c(CO)c1O.O=C1CC[C@@H](C(=O)O)N1 [Metadoxine] is greater than or equal to 1 Met

# check: Cholesterol-free of C=C[C@@H]1C[C@]1(NC(=O)[C@@H]1C[C@@H]2CN1C(=O)[C@H](C(C)(C)C)NC(=O)O[C@@H]1C[C@H]1CCCCCc1nc3ccc(OC)cc3nc1O2)C(=O)NS(=O)(=O)C1CC1.O [Grazoprevir] is greater than or equal to 1 Met

# check: Cholesterol-free of Cn1c(=O)cc(N2CCC[C@@H](N)C2)n(Cc2ccccc2C#N)c1=O.O=C(O)c1ccccc1 [Alogliptin (Benzoate)] is greater than or equal to 1 Not met

# check: Cholesterol-free of COc1cc(C)c(/C=C/C(C)=C/C=C/C(C)=C/C(=O)O)c(C)c1C [Acitretin] is greater than or equal to 1 Not met

# check: Cholesterol-free of Oc1c(Cl)cc(Cl)cc1Sc1cc(Cl)cc(Cl)c1O [Bithionol] is greater than or equal to 1 Not met

# check: Cholesterol-free of Cl.N[C@H]1C(O)O[C@H](CO)[C@@H](O)[C@@H]1O (stereo partly shown) [Glucosamine (hydrochloride)] is greater than or equal to 1 Met

---

Tested on: NCI-H292 lung cancer cells
Assay: FDA drug screening, complete media vs cholesterol-free media with simvastatin (TABLE 2)
Format: cell-based, human
Conditions: NCI-H292 cells, complete media; FDA drug library screen (TABLE 2)
Where a name gives a salt, the structure may show the parent alone.
# t = Complete Media below 1 (exclusive); f = Complete Media at/above 1

| Compound | Tested System | Group Label |
| --- | --- | --- |
| CN1CCN2c3ncccc3Cc3ccccc3C2C1 (centres unmarked) | NCI-H292 lung cancer cells | t |
| Cc1nc(Nc2ncc(C(=O)Nc3c(C)cccc3Cl)s2)cc(N2CCN(CCO)CC2)n1 [Dasatinib (hydrochloride)] | NCI-H292 lung cancer cells | t |
| COc1cc(CNC(=O)CCCC/C=C/C(C)C)ccc1O | NCI-H292 lung cancer cells | f |
| O=C(O)Cc1ccccc1Nc1c(Cl)cccc1Cl [Diclofenac (potassium)] | NCI-H292 lung cancer cells | f |
| CCC[C@@]1(CCc2ccccc2)CC(O)=C([C@H](CC)c2cccc(NS(=O)(=O)c3ccc(C(F)(F)F)cn3)c2)C(=O)O1 | NCI-H292 lung cancer cells | f |

Hi there! Is Complete Media for `CC(C)(CO)c1cc2cc(NC(=O)C3(c4ccc5c(c4)OC(F)(F)O5)CC3)c(F)cc2n1C[C@@H](O)CO` below 1, do you know? f

Hi there! Is Complete Media for `COc1cc(S(=O)(=O)[O-])ccc1O.[K+]` below 1, do you know? t

Hi there! Is Complete Media for `N#Cc1ccc2[nH]cc(CCCCN3CCN(c4ccc5oc(C(=O)O)cc5c4)CC3)c2c1` below 1, do you know? f

The measured values listed here are drawn from patent US20250144067A1.
